- EXPERIMENT: LNCaP granularity increase inducers, single-point recheck – cell-based, side scatter shift, flow cytometry, confirmation (AID 1069);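 also: LNCaP human prostate cancer cells in low-serum medium with charcoal-stripped FBS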
- EXPERIMENTAL_CONTEXT: LNCaP differentiation, 4 d, at 100 µM
Active and inactive are the calls of the source.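 The calls were made as follows: active = high combined rank on largest and smallest cell-count-weighted shift across three tests, rank score above 45, floors 50 and 25 (some results past the limit were not filed as active); inactive = the rest.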
Use one of these outcomes when replying: t (active), f (inactive)

Q) Fill in: this test's call for "COc1ccc2nc3oc(C(=O)NCc4cccs4)cc3cc2c1" is ___
A) f

Q) Fill in: this test's call for "Cc1ccc(-n2nc3cc(Cl)c(NC(=O)c4ccco4)cc3n2)cc1" is ___
A) f

Q) Fill in: this test's call for "CCn1c(C(=O)NCCCN2CCc3ccccc3C2)cc2sccc21" is ___
A) f

Q) Fill in: this test's call for "Cc1ccc(C)c2[nH]c(=O)c(CN(CCN3CCCC3)C(=O)Nc3cccc(Cl)c3)cc12" is ___
A) f

Q) Fill in: this test's call for "Cc1noc(/C=C/c2ccco2)c1S(=O)(=O)N1CCC(C(=O)N2CCc3ccccc3C2)CC1" is ___
A) t

Q) Fill in: this test's call for "CCOC(=O)N1CCC(NC(=O)c2cc3c(-c4cccc(OC)c4)nn(C)c3s2)CC1" is ___
A) f

Q) Fill in: this test's call for "CCN1CCN(C(=O)C2CCN(Cc3nc(-c4cccc(Cl)c4)oc3C)CC2)CC1" is ___
A) f

Q) Fill in: this test's call for "Cc1ccc(-n2c(SCC(=O)Nc3nccs3)nc3c(c2=O)SCC3)cc1" is ___
A) f

Q) Fill in: this test's call for CC(=O)c1cccc(NC2c3ccccc3C(=O)N2Cc2ccc3c(c2)OCO3)c1 (stereo not given) is ___
A) f

Q) Fill in: this test's call for "CSc1nc2ccc(Nc3nc(N4CCOCC4)nc(N4CCOCC4)n3)cc2s1" is ___
A) f
